The reported numbers originate from the supplement of paper PMC10567573.

B1: KRT34 (parent)
chain: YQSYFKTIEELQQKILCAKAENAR

- Variants of: B1
- RUN_DESCRIPTION: protein stability index of a GFP-peptide fusion (GPS, HEK-293T) (PSI 1-6); higher = more stable;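 also: lentivirally expressed fusions sorted by FACS into six bins by GFP to DsRed ratio, PSI derived from sequencing read proportions per bin multiplied by bin number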
- RECORDED_CONDITIONS: c terminus: a fixed tail appended
MEASURED_PROPERTY: protein stability index
Answer as a number with no unit attached.

Solved cases below.
T7R: 1.86
E9C: 1.87
Y1V: 2.27
T7F: 1.81
K6S: 1.74
I8Q: 1.37

### Prompt Using the record for N22F , report its protein stability index.
### Response 2.17
